assayed-system: human RORγt LBD fused to the DNA binding domain of the GAL4 protein (Homo sapiens (Human), UniProt P51449)
Sequence (P51449 258-518): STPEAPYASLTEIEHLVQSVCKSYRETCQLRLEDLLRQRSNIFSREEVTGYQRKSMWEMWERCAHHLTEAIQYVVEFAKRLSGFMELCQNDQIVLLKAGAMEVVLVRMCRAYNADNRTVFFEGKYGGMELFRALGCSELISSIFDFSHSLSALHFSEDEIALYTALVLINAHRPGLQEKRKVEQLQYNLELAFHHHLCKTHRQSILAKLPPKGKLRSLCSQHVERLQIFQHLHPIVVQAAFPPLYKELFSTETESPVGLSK
experiment: RORγt (LBD) reporter assay in HEK293T cells
pIC50: −log10 of the molar value.
measured-parameter: pIC50

# example entries with known answers
compound: Cc1ncc(C(O)c2ccc3nc(Cl)c(OC(C)C)c(Cl)c3c2)n1C (centres unmarked)
reading: < 5.22
//
compound: COc1nc2ccc(C(O)(c3ccc(C)nc3C)c3cnnn3C)cc2c(Cl)c1OCCS(C)(=O)=O (centres unmarked) [Example 70a]
reading: < 5.22
//
compound: COc1nc2ccc([C@@](O)(c3ccccc3)C3CCN(C(C)=O)CC3)cc2c(Cl)c1CC1CCOCC1
reading: < 5.22
//
compound: COc1nc2ccc(C(O)(c3ccc(C)nc3C)c3cnnn3C)cc2c(Cl)c1OCCN(C)C (single isomer, unassigned) [Example 74b]
reading: < 5.22
//
compound: Cc1ccc(C(O)(c2ccc3nc(Cl)c(CC(F)(F)F)c(N4CCC4)c3c2)c2cnnn2C)c(C)n1 (single isomer, unassigned) [Example 238b]
reading: < 5.22
//
compound: COc1nc2ccc(C(O)(c3cncn3C)C3CCN(S(C)(=O)=O)CC3)cc2c(Cl)c1CC1CCOCC1 (single isomer, unassigned) [Example 6b]
reading: < 5.22

I need pIC50 for every entry listed below, if you could help.
1. CC(=O)N1CCC(C(O)(c2ccc3nc(C(F)(F)F)c(C(=O)N4CCCCC4)c(C(F)(F)F)c3c2)c2cncn2C)CC1 (centres unmarked)
2. COc1nc2ccc([C@](O)(c3ccccc3)C3CCN(C(C)=O)CC3)cc2c(Cl)c1CC1CCOCC1
3. COc1nc2ccc(C(O)(c3ccc(C(F)(F)F)nc3)c3cncn3C)cc2c(Cl)c1OCc1cccnc1 (single isomer, unassigned) [Example 76c]
4. Cc1c(-c2ccc3c(cnn3C)c2)nc2ccc(C(O)(c3cccnc3)c3cccc(Cl)c3)cc2c1Cl (centres unmarked)

1. < 5.22
2. < 5.22
3. < 5.22
4. < 5.22

I need pIC50 for every entry listed below, if you could help.
1. COc1nc2ccc(C(O)(c3ccc(C(F)(F)F)nc3)c3cncn3C)cc2c(Cl)c1CCC1CCN(C(C)=O)CC1 (centres unmarked)
2. COc1nc2ccc(C(O)(c3ccc(C(F)(F)F)nc3)c3cncn3C)cc2c(Cl)c1C1=CCN(C)CC1 (centres unmarked)

< 5.22
< 5.22
